pIC50 for Lysine-specific demethylase 5A (Homo sapiens) - collated from the literature.
pIC50: −log10 of the molar value.
recorded.metric: pIC50

| molecule | recorded.metric | recorded.result |
| --- | --- | --- |
| O=C(O)c1ccnc(-n2nccc2OCc2cccnc2)c1 | pIC50 | > 7.00 |
| O=C(O)c1ccnc(-n2nccc2O)c1 | pIC50 | > 7.00 |
| Oc1nc(Oc2ccc(Cl)c(Cl)c2)nc2cnccc12 | pIC50 | 6.00 to 7.00 |
| Cc1nn(-c2cc(C(=O)O)ccn2)c(O)c1C | pIC50 | 6.00 to 7.00 |
| CN(C)c1ccc(Oc2nc(O)c3ccncc3n2)cc1 | pIC50 | ≥ 7.00 |
| CCOc1nc(O)c2ccncc2n1 | pIC50 | ≥ 7.00 |
| Cc1cc(-c2cnn(C)c2)cc(C2CCN(C(=O)c3cc(C(C)(C)C)n[nH]3)C2)n1 (centres unmarked) | pIC50 | 9.05 |
| Cn1cnc(-c2nccc3c(O)nc(O[C@@H](c4ccccc4)C(F)(F)F)nc23)c1 | pIC50 | 5.00 to 6.00 |
| CCc1ccc(COc2ccnn2-c2cc(C(=O)O)ccn2)cc1 | pIC50 | > 7.00 |
| Oc1nc(Oc2cnn(Cc3cccc(Cl)c3)c2)nc2cnccc12 | pIC50 | ≥ 7.00 |
| Cc1cc(-c2cnn(C)c2)cc([C@H]2CCN(C(=O)c3cc(C(C)C)n[nH]3)C2)n1 (single isomer, unassigned) | pIC50 | 9.77 |
| Cn1cnc(-c2nccc3c(O)nc(OCc4ccccc4)nc23)c1 | pIC50 | ≥ 7.00 |
| O=C(O)c1ccncc1Nc1nn(C2CCOC2)c2ccc(Cl)cc12 (centres unmarked) | pIC50 | > 7.00 |
| Oc1nc(Oc2ccnc(N3CCNCC3)c2)nc2cnccc12 | pIC50 | ≥ 7.00 |
| CC(C)c1cc(C(=O)N2CCC(NC(=O)C3(c4ccncc4)CC3)C2)[nH]n1 (centres unmarked) | pIC50 | 8.70 |
| CC(C)c1cc(C(=O)N2CCC(NC(=O)c3ccccc3Oc3ccccc3)C2)[nH]n1 (centres unmarked) | pIC50 | 9.15 |
| Oc1nc(Oc2cnn([C@H]3CCN(c4ccc(Cl)cc4)C3)c2)nc2cnccc12 | pIC50 | ≥ 7.00 |
| Cn1ncc2ccc(COc3ccnn3-c3cc(C(=O)O)ccn3)cc21 | pIC50 | > 7.00 |
| CC(C)(O)c1cc(C(=O)N2CCC(NC(=O)C3CC3)C2)[nH]n1 (centres unmarked) | pIC50 | 9.13 |
| CC(C)c1cc(C(=O)N2CCC(n3cc(Br)cn3)C2)[nH]n1 (centres unmarked) | pIC50 | 9.13 |
| CCc1ccc(COc2ccnn2-c2cc(C(=O)O)ccn2)cc1Cl | pIC50 | > 7.00 |
| CNC(=O)c1cccc(-c2c(-c3cc(C(=O)O)ccn3)ncn2C)c1 | pIC50 | 6.00 to 7.00 |
| Oc1nc(Oc2ccc(Cl)cc2)nc2cnccc12 | pIC50 | ≥ 7.00 |
| CC(=O)N1CC[C@@H](n2cc(Oc3nc(O)c4ccncc4n3)cn2)C1 | pIC50 | ≥ 7.00 |
| O=C(O)c1ccnc(-n2nccc2OC2CCc3cc(Cl)ccc32)c1 (centres unmarked) | pIC50 | 6.00 to 7.00 |
| Cn1cnc(-c2nccc3c(O)nc(O[C@H](c4ccccc4)C(F)(F)F)nc23)c1 | pIC50 | 5.00 to 6.00 |
